Numbers sourced from patent US7053107B2.

- tgt: unphosphorylated VEGF-R2Δ50 (Homo sapiens, UniProt P35968, DEL940-989/E990V)
- Construct: VEGF-R2Δ50 contains residues 806–939 and 990–1171; made in house; host or cells: baculovirus/insect cell system
- Sequence (P35968 with tags, fused parts or gaps DEL940-989/E990V limits assumed): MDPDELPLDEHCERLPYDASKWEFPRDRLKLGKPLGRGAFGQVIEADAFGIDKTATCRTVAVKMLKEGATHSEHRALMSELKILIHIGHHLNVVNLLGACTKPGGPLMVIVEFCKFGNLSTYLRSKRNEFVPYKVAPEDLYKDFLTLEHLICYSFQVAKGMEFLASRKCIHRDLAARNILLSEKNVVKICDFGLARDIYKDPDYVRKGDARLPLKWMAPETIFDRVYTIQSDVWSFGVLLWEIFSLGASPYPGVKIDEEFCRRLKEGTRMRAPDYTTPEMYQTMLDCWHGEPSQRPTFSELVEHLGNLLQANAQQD
- experiment description: VEGF-R2 coupled spectrophotometric assay, unphosphorylated construct (FLVK)
- Type: biochemical
- measurement context: cell prints nM instead of % inhibition
measured parameter: Ki (nM)
# output: bare number, implied unit nM

The compound identified as `Cc1cc(CNC(=O)c2ccccc2Nc2ccc3c(/C=C/c4ccccn4)n[nH]c3c2)n(C)n1` registered its Ki at 3.11

###

- experiment description: Human Liver Microsome (HLM) Assay
- Type: in vitro ADME
- measurement context: @0.5 h
The molecules listed here are annotated with their % remaining (HLM).

{"molecule": "Cc1cc(CNC(=O)c2ccccc2Nc2ccc3c(/C=C/c4ccccn4)n[nH]c3c2)n(C)n1 [Example 65]", "result": "86@0.5 h %"}
{"molecule": "C=C(C)CNC(=O)c1ccccc1Nc1ccc2c(/C=C/c3ccccn3)n[nH]c2c1 [Example 3(k)]", "result": "75@0.5 h %"}
{"molecule": "Cc1cc(C)nc(/C=C/c2n[nH]c3cc(Nc4ccccc4C(=O)NCC#CCO)ccc23)c1 [Example 10]", "result": "80@0.5 h %"}
{"molecule": "CC(C)ONC(=O)c1ccccc1Nc1ccc2c(/C=C/c3ccccn3)n[nH]c2c1 [Example 3(c)]", "result": "46@0.5 h %"}
{"molecule": "Cc1ccnc(/C=C/c2n[nH]c3cc(Nc4ccccc4C(=O)NC4CC4)ccc23)c1 [Example 2(h)]", "result": "74@0.5 h %"}

The molecule identified as O=C(NCc1ccccc1)c1ccccc1Nc1ccc2c(/C=C/c3ccccn3)n[nH]c2c1 [Example 3(g)] registered its % remaining (HLM) at 72@0.5 h %

Summary for this molecule, C#CCNC(=O)c1ccccc1Nc1ccc2c(/C=C/c3cc(C)ccn3)n[nH]c2c1 [Example 32] : % remaining (HLM) is 97@0.5 h %

// O=C(NC1CCC1)c1ccccc1Nc1ccc2c(/C=C/c3ccccn3)n[nH]c2c1 [Example 3(j)] : % remaining (HLM) value = 65@0.5 h %

Short answer for COc1ccccc1CNC(=O)c1ccccc1Nc1ccc2c(/C=C/c3ccccn3)n[nH]c2c1 [Example 3(h)] : % remaining (HLM) was 75@0.5 h %

Entry under test: O=C(NCC#CCO)c1ccccc1Nc1ccc2c(/C=C/c3ccccn3)n[nH]c2c1 [Example 64] . Its % remaining (HLM) was 66@0.5 h %

###

- tgt: FGF-R1 (Homo sapiens, UniProt P11362, C488A/C584S/L457V)
- Construct: starting from the endogenous methionine residue 456 to glutamate 766; made in house; host or cells: baculovirus vector expression system
- Sequence (P11362 456-766 L457V/C488A/C584S): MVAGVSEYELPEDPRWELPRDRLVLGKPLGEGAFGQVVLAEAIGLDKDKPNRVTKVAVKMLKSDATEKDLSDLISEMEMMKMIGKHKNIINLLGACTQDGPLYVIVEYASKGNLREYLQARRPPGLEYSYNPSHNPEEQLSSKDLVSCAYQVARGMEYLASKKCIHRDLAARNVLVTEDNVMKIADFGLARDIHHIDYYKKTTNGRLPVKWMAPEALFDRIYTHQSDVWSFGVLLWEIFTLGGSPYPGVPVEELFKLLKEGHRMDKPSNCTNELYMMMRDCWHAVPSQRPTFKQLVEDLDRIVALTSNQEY
- experiment description: Fibroblast Growth Factor (FGF-R) spectrophotometric assay
- Assay type: biochemical
- measurement context: 1 μM compound; read-out: FGF-P % inhibit @1 μM
Hi, to clarify the labels: Criterion met covers inhibition at 1 µM from 60% upward, Criterion not met covers anything below 60%.

{"smiles entry": "C=C(C)CNC(=O)c1ccccc1Nc1ccc2c(/C=C/c3ccccn3)n[nH]c2c1", "assigned class": "Criterion not met"}
{"smiles entry": "C#CCNC(=O)c1ccccc1Nc1ccc2c(/C=C/c3cc(C)ccn3)n[nH]c2c1", "assigned class": "Criterion met"}
{"smiles entry": "C#CCNC(=O)c1ccccc1Nc1ccc2c(/C=C/c3cc(C)cc(C)n3)n[nH]c2c1", "assigned class": "Criterion met"}
{"smiles entry": "C#CCNC(=O)c1ccccc1Nc1ccc2c(/C=N/n3cccc3)n[nH]c2c1", "assigned class": "Criterion met"}
{"smiles entry": "CC(=O)OCC#CCNC(=O)c1ccccc1Nc1ccc2c(/C=C/c3cc(C)cc(C)n3)n[nH]c2c1", "assigned class": "Criterion not met"}

From here, focus on the item given below.
Check if inhibition at 1 µM >= 60% (inclusive). Item: `CC(C)ONC(=O)c1ccccc1Nc1ccc2c(/C=C/c3ccccn3)n[nH]c2c1` Criterion met

###

- tgt: FGF-R1 (Homo sapiens, UniProt P11362, C488A/C584S/L457V)
- Construct: starting from the endogenous methionine residue 456 to glutamate 766; made in house; host or cells: baculovirus vector expression system
- experiment description: Fibroblast Growth Factor (FGF-R) spectrophotometric assay
- Type: biochemical
- measurement context: second value in the FGF-P cell, Ki
measured parameter: Ki (nM)
Could you give me the number in nM? Just the number is fine.

Ki recorded for this molecule, Cc1cc(C)nc(/C=C/c2n[nH]c3cc(Nc4ccccc4C(=O)NCC#CCO)ccc23)c1 [Example 10] , is 197

###

Overview of recorded IC50 for various compounds
- tgt: KDR (Homo sapiens, UniProt P35968)
- Construct: expressed in transfected cells; host or cells: porcine aorta endothelial (PAE) cells
- Sequence (P35968 20-1356): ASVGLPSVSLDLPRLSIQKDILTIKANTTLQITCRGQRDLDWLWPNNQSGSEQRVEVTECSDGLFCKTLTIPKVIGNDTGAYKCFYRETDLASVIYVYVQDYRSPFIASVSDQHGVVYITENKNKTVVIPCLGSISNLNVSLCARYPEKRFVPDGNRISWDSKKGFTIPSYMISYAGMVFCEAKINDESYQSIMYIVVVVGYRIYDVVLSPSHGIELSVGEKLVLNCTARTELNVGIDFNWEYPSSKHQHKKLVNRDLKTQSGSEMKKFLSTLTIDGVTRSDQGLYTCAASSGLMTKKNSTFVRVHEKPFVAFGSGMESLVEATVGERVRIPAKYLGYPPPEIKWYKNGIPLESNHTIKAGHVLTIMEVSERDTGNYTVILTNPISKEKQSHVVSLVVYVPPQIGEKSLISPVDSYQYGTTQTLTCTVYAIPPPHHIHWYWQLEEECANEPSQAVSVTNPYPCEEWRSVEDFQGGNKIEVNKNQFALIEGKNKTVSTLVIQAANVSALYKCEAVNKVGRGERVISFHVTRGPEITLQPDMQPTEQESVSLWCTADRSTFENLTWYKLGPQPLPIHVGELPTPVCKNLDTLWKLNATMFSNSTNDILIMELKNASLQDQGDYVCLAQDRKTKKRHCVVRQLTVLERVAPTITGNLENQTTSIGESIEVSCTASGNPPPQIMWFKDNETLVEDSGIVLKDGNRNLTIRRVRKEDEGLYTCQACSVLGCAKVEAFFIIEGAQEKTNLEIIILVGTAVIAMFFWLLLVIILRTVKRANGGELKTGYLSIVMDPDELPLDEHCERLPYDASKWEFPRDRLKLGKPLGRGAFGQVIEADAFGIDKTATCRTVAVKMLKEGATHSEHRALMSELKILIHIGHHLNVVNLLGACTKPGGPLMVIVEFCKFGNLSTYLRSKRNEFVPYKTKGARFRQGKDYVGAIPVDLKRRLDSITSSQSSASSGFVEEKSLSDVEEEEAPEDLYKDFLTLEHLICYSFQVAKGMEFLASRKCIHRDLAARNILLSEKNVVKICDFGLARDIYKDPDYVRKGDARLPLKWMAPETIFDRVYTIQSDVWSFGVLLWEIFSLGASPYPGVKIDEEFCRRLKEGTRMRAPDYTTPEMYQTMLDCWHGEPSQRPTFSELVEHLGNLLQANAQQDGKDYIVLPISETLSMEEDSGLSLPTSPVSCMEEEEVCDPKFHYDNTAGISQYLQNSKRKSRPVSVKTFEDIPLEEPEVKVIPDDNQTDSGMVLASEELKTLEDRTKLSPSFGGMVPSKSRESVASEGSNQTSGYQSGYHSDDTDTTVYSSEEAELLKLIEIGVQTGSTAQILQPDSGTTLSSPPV
- experiment description: KDR (VEGFR2) Phosphorylation in PAE-KDR Cells Assay
- Assay type: cell-based
- measurement context: PAE cells overexpressing human KDR
Give a bare numeral; the unit nM is implied.

{"smiles entry": "Cc1ccnc(/C=C/c2n[nH]c3cc(Nc4ccccc4C(=O)NCC#CC4CC4)ccc23)c1", "IC50 (nM)": 1.62}

Let us move to another entry and its IC50.
Form field IC50, entry `Cc1ccnc(/C=C/c2n[nH]c3cc(Nc4ccccc4C(=O)NCc4ccccn4)ccc23)c1` : 0.76

###

- tgt: unphosphorylated VEGF-R2Δ50 (Homo sapiens, UniProt P35968, DEL940-989/E990V)
- Construct: VEGF-R2Δ50 contains residues 806–939 and 990–1171; made in house; host or cells: baculovirus/insect cell system
- experiment description: VEGF-R2 coupled spectrophotometric assay, unphosphorylated construct (FLVK)
- Type: biochemical
- measurement context: % inhibition at 50 nM compound; read-out: FLVK Ki % inh @ 50 nM
Label Not fulfilled if inhibition at 0.05 µM falls below 90%; label Fulfilled in every other case.

{"smiles entry": "O=C(NC1CCC1)c1ccccc1Nc1ccc2c(/C=C/c3ccccn3)n[nH]c2c1", "assigned class": "Not fulfilled"}
{"smiles entry": "Cc1cc(CNC(=O)c2ccccc2Nc2ccc3c(/C=N/n4cccc4)n[nH]c3c2)n(C)n1", "assigned class": "Not fulfilled"}
{"smiles entry": "Cc1ccnc(/C=C/c2n[nH]c3cc(Nc4ccccc4C(=O)NCc4cccc(C)n4)ccc23)c1", "assigned class": "Fulfilled"}
{"smiles entry": "Cc1cc(C)nc(/C=C/c2n[nH]c3cc(Nc4ccccc4C(=O)NCC#CC4CC4)ccc23)c1", "assigned class": "Fulfilled"}
{"smiles entry": "Cc1ccnc(/C=C/c2n[nH]c3cc(Nc4ccccc4C(=O)NCc4cc(C)nn4C)ccc23)c1", "assigned class": "Not fulfilled"}

Now look at this entry.
Hi team, for `COc1ccccc1CNC(=O)c1ccccc1Nc1ccc2c(/C=C/c3ccccn3)n[nH]c2c1` , is the recorded inhibition at 0.05 µM at or above 90%? Fulfilled

###

Here the recorded Ki is given for each entry.
- tgt: phosphorylated VEGF-R2Δ50 (Homo sapiens, UniProt P35968, DEL940-989/E990V)
- Construct: VEGF-R2Δ50 contains residues 806–939 and 990–1171; made in house; host or cells: baculovirus/insect cell system
- Sequence (P35968 with tags, fused parts or gaps DEL940-989/E990V limits assumed): as the sequence (P35968 with tags, fused parts or gaps DEL940-989/E990V limits assumed) above
- experiment description: VEGF-R2 coupled spectrophotometric (FLVK-P) assay, phosphorylated construct
- Type: biochemical
- measurement context: Ki (nM)
Respond with a number, then the unit of measure.

{"smiles entry": "Cc1ccnc(/C=C/c2n[nH]c3cc(Nc4ccccc4C(=O)NCC#CC4CC4)ccc23)c1", "Ki": "0.3 nM"}

Next, consider the following molecule.
Record `Cc1cc(C)nc(/C=C/c2n[nH]c3cc(Nc4ccccc4C(=O)NCC#CCO)ccc23)c1` . Reported Ki: 6.07 nM

###

- experiment description: Mouse PK Assay
- Assay type: in vivo
- measurement context: female, B6, plasma, oral, read-out: Mouse pK, AUC, po
- Method: The pharmacokinetics (e.g., absorption and elimination) of drugs in mice were analyzed using the following experiment. Test compounds were formulated as a solution or suspension in a 30:70 (PEG 400: acidified H2O) vehicle or as a suspension in 0.5% CMC. […] Test-compound plasma concentrations (μg/mL) were determined by a comparison to standard curve (peak area vs. conc. μg/mL) using known concentrations of test compound extracted from plasma samples in the manner described above. […]
measured parameter: AUC (ng·h/mL)
I only need the number, in ng·h/mL, no unit after it.

Measured AUC, `COC(=O)C(C(=O)OC)c1ccc(Cl)cc1[N+](=O)[O-]` : 330

###

- tgt: PDGFRβ (Homo sapiens, UniProt P09619)
- Sequence (P09619 33-1106): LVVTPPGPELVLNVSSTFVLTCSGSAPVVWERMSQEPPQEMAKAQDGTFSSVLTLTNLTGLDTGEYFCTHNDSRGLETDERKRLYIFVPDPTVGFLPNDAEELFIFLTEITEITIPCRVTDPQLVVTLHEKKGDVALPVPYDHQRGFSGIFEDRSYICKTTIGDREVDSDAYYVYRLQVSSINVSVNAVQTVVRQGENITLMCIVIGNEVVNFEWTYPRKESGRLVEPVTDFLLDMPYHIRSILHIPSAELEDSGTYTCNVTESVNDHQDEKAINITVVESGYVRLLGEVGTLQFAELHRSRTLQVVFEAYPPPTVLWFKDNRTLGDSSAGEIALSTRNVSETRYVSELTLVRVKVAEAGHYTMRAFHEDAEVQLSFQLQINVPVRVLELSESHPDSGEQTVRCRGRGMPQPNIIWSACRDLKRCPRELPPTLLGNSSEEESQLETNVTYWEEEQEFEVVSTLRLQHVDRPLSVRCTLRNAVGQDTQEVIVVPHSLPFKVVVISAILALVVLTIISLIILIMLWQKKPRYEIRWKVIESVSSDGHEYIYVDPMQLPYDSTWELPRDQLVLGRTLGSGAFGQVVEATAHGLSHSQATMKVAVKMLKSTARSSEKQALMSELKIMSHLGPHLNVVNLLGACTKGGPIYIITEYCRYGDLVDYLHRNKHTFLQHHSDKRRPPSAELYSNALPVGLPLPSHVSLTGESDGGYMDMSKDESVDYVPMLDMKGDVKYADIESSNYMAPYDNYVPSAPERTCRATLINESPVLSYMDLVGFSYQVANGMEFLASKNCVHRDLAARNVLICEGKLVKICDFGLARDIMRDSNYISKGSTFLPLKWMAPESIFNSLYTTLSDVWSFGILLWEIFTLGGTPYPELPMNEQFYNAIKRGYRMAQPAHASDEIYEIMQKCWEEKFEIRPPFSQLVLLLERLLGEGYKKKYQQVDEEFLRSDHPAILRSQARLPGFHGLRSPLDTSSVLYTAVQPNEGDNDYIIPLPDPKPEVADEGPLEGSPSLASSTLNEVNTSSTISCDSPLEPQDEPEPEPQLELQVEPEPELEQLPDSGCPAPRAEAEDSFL
- experiment description: PAE-PDGFRβ Phosphorylation in PAE-PDGFRB Cells Assay
- measurement context: PAE cells overexpressing human PDGFRβ; read-out: PAE PDGFR autophos IC50
measured parameter: IC50 (nM)
Express it in nM; write the number only.

{"smiles entry": "O=C(NCC#CCO)c1ccccc1Nc1ccc2c(/C=C/c3ccccn3)n[nH]c2c1", "IC50 [nM]": 5.5}
{"smiles entry": "O=C(NC1CC1)c1ccccc1Nc1ccc2c(/C=C/c3ccccn3)n[nH]c2c1", "IC50 [nM]": 3.5}
{"smiles entry": "C=C(C)CNC(=O)c1ccccc1Nc1ccc2c(/C=C/c3cc(C)ccn3)n[nH]c2c1", "IC50 [nM]": 4.5}

Field IC50 (entry `Cc1cc(C)nc(/C=C/c2n[nH]c3cc(Nc4ccccc4C(=O)NCC#CCO)ccc23)c1` ) reads 21
